tested on: HeLa; assay: Cytotoxicity against human HeLa cells after 72 hrs by MTT assay; type: cell-based
Reported IC50 values follow for various compounds

[
  {
    "compound.structure.string": "CC(C)(O)[C@@H]1CC[C@@](C)([C@H]2CC[C@]3(C)[C@@H]2C(=O)C[C@@H]2[C@@]4(C)CCC(=O)C(C)(C)[C@@H]4CC[C@]23C)O1",
    "unit.symbol": "µg/mL",
    "IC50": 47
  },
  {
    "compound.structure.string": "CC(C)(O)[C@@H]1CC[C@@](C)([C@H]2CC[C@]3(C)[C@@H]2[C@H](O)C[C@@H]2[C@@]4(C)CC[C@H](O)C(C)(C)[C@@H]4CC[C@]23C)O1",
    "unit.symbol": "µg/mL",
    "IC50": 47.6
  },
  {
    "compound.structure.string": "CC(C)(O)[C@@H]1CC[C@@](C)([C@H]2CC[C@]3(C)[C@@H]2[C@H](OC(=O)c2ccccc2C(=O)O)C[C@@H]2[C@@]4(C)CC[C@H](O)C(C)(C)[C@@H]4CC[C@]23C)O1",
    "unit.symbol": "µg/mL",
    "IC50": 54.4
  },
  {
    "compound.structure.string": "O=c1[nH]cc(F)c(=O)[nH]1",
    "unit.symbol": "µg/mL",
    "IC50": 0.8
  }
]

====

tested on: Bacillus subtilis; assay: Antibacterial activity against Bacillus subtilis 168 by dilution technique; assay type: functional; details: subsp. subtilis str. 168
Decision: MIC beneath 30 µg/mL gives T; MIC meeting or exceeding 30 µg/mL gives F.

[
  {
    "compound.structure.string": "NC[C@H]1O[C@H](O[C@H]2[C@H](O)[C@@H](O[C@H]3O[C@H](CO)[C@@H](O)[C@H](N)[C@H]3O)[C@H](N)C[C@@H]2N)[C@H](O)[C@@H](O)[C@@H]1O",
    "tested.system": "Bacillus subtilis",
    "class.assignment": "T"
  },
  {
    "compound.structure.string": "CC(C)=CCC[C@](C)(O)[C@H]1CC[C@]2(C)[C@@H]1[C@H](O)C[C@@H]1[C@@]3(C)CC[C@H](O)C(C)(C)[C@@H]3CC[C@]12C",
    "tested.system": "Bacillus subtilis",
    "class.assignment": "F"
  },
  {
    "compound.structure.string": "CC(C)(O)[C@@H]1CC[C@@](C)([C@H]2CC[C@]3(C)[C@@H]2[C@H](O)C[C@@H]2[C@@]4(C)CCC(=O)C(C)(C)[C@@H]4CC[C@]23C)O1",
    "tested.system": "Bacillus subtilis",
    "class.assignment": "F"
  },
  {
    "compound.structure.string": "CC(C)(O)[C@@H]1CC[C@@](C)([C@H]2CC[C@]3(C)[C@@H]2C(=O)C[C@@H]2[C@@]4(C)CCC(=O)C(C)(C)[C@@H]4CC[C@]23C)O1",
    "tested.system": "Bacillus subtilis",
    "class.assignment": "F"
  },
  {
    "compound.structure.string": "CC(C)(O)[C@H]1CC[C@@](C)([C@H]2CC[C@]3(C)[C@@H]2[C@H](O)C[C@@H]2[C@@]4(C)CCC(=O)C(C)(C)[C@@H]4CC[C@]23C)O1",
    "tested.system": "Bacillus subtilis",
    "class.assignment": "F"
  },
  {
    "compound.structure.string": "O=C(N[C@H](CO)[C@H](O)c1ccc([N+](=O)[O-])cc1)C(Cl)Cl",
    "tested.system": "Bacillus subtilis",
    "class.assignment": "T"
  }
]

Where these numbers come from: ChEMBL document CHEMBL2424524
